Target: Solute carrier family 22 member 7 (Homo sapiens)
Sequence (Q9Y694 whole entry): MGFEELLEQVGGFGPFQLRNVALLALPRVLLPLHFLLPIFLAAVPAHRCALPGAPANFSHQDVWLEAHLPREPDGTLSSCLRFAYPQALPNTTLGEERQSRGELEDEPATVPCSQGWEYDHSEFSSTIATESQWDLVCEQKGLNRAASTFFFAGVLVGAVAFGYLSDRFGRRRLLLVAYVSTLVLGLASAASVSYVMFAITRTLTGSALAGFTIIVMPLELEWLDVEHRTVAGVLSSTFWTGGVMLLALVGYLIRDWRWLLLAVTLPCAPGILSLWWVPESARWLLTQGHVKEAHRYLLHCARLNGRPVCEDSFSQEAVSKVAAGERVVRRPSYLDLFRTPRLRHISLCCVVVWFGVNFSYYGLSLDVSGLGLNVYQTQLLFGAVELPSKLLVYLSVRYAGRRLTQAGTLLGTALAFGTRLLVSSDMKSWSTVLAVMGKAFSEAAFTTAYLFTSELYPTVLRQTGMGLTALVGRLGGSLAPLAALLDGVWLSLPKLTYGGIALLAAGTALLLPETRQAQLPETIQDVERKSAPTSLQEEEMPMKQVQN
Experiment: TP_TRANSPORTER: inhibition of PGF2alpha in OAT2-S2 cells
propertyName: IC50 (µM)
Please give a number only; it is taken to be in µM.

Problem: Name the reported IC50 value associated with the compound CC(=O)OCC1=C(C(=O)O)N2C(=O)[C@@H](NC(=O)Cc3cccs3)[C@H]2SC1
Result: 1410

Problem: Follow-up item: O=C(Cc1cccs1)N[C@@H]1C(=O)N2C(C(=O)[O-])=C(C[n+]3ccccc3)CS[C@H]12
Result: 4480

Problem: How about CO/N=C(\C(=O)N[C@@H]1C(=O)N2C(C(=O)O)=C(COC(C)=O)CS[C@H]12)c1csc(N)n1 ?
Result: 4680

Problem: Could you do the same for Cn1nnnc1SCC1=C(C(=O)O)N2C(=O)[C@@H](NC(=O)[C@H](O)c3ccccc3)[C@H]2SC1 , please?
Result: 1570

Problem: And CCN1CCN(C(=O)N[C@@H](C(=O)N[C@@H]2C(=O)N3C(C(=O)O)=C(CSc4nnnn4C)CS[C@H]23)c2ccc(O)cc2)C(=O)C1=O ?
Result: 1330

---

Molecular target: Solute carrier family 22 member 7 (Rattus norvegicus, UniProt Q5RLM2)
Sequence (Q5RLM2 whole entry): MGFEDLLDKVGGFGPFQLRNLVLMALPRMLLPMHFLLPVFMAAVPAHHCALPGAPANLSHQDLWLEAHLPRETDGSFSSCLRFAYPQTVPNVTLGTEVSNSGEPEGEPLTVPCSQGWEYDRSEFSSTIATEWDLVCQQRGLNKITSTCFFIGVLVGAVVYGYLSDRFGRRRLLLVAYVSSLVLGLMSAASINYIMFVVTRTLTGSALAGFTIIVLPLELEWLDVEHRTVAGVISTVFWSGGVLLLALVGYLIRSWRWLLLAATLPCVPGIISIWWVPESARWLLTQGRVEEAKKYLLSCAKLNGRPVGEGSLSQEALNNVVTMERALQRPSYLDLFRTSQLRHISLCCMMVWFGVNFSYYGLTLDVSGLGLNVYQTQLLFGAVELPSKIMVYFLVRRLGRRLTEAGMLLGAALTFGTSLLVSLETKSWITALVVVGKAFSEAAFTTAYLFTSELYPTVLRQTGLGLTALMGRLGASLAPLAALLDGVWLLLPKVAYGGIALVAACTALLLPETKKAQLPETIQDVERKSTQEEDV
Test: TP_TRANSPORTER: inhibition of PGF2alpha in OAT2-S2 cells
Kindly state pIC50 for each of the entries shown.
Scale: negative log10 of molar concentration, which is what pIC50 denotes.

Problem: Item Cn1nnnc1SCC1=C(C(=O)O)N2C(=O)[C@@H](NC(=O)[C@H](O)c3ccccc3)[C@H]2SC1 has what recorded pIC50?
Result: 2.50

Problem: Thanks! And CC(=O)OCC1=C(C(=O)O)N2C(=O)[C@@H](NC(=O)Cc3cccs3)[C@H]2SC1 ?
Result: 2.82

Problem: // next record CCN1CCN(C(=O)N[C@@H](C(=O)N[C@@H]2C(=O)N3C(C(=O)O)=C(CSc4nnnn4C)CS[C@H]23)c2ccc(O)cc2)C(=O)C1=O
Result: 2.79
